target: Serotonin (5-HT) uptake (Rattus norvegicus, UniProt P31652); construct: The suspension was used as a crude synaptosome fraction; from tissue; host or cells: rat (male Wistar) frontal cortex, crude synaptosome fraction; experiment: Serotonin (5-HT) uptake inhibitory activity using rat brain synaptosome (frontal cortex); assay type: biochemical; settings: tritium-labeled 5-HT 8 nM, 37° C. 10 minutes, read-out: 50% Inhibitory concentration
Sequence (P31652 whole entry): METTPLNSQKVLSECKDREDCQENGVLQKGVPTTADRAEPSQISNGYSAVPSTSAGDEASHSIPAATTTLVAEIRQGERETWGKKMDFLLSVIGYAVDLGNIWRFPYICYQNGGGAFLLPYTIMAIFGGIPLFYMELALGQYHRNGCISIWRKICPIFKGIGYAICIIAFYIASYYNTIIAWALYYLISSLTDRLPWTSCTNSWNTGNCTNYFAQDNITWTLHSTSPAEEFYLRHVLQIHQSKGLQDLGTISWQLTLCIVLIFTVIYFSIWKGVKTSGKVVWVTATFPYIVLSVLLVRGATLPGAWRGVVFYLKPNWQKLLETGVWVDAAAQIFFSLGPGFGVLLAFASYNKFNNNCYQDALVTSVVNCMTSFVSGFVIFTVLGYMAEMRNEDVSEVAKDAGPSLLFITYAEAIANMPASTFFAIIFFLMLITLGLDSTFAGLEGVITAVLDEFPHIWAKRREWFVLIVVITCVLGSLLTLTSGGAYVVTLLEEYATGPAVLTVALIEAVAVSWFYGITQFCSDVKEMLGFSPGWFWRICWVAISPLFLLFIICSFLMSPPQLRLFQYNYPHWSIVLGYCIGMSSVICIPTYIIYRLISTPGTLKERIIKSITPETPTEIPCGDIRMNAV
Structures can show the parent of a compound that is named as a salt.
recorded_endpoint: IC50 (nM)

[1] CC1(C)CN(c2ccc3ncsc3c2)[C@H]2CCCC[C@@H]2N1 (racemic) [Example 405]
[2] CC1(C)CN(c2cccc3ccsc23)[C@@H]2CCCC[C@@H]2N1 [Example 72]
Qu. Please indicate which item has the smaller measured IC50: 1 versus 2 To answer, give the label that identifies your chosen option.
Ans. 2

[P] CC1(C)CCN(c2ccc(Cl)c(Cl)c2)[C@@H]2CCCC[C@@H]2N1 (relative stereo) [Example 322]
[Q] CC1(C)CN(c2ccc(OC(F)F)c(F)c2)[C@H]2CCCC[C@@H]2N1 [Example 587, dihydrochloride]
[R] Cc1c(Cl)cccc1N1CC(C)(C)N[C@H]2CCCC[C@H]21 [Example 468]
Qu. List these items ordered by IC50, big to small. Show the ranking through the labels, in the order asked for.
Ans. P, R, Q
(P: 9.6 nM, R: 3.8 nM, Q: 0.9 nM)

* * *

molecular target: Dopamine (DA) uptake (Rattus norvegicus); construct: The suspension was used as a crude synaptosome fraction; assay: Dopamine (DA) uptake inhibitory activity using rat brain synaptosome (corpus striatum); conditions: tritium-labeled DA 2 nM, 37° C. ten minutes, read-out: 50% Inhibitory concentration
Sequence (P23977 whole entry): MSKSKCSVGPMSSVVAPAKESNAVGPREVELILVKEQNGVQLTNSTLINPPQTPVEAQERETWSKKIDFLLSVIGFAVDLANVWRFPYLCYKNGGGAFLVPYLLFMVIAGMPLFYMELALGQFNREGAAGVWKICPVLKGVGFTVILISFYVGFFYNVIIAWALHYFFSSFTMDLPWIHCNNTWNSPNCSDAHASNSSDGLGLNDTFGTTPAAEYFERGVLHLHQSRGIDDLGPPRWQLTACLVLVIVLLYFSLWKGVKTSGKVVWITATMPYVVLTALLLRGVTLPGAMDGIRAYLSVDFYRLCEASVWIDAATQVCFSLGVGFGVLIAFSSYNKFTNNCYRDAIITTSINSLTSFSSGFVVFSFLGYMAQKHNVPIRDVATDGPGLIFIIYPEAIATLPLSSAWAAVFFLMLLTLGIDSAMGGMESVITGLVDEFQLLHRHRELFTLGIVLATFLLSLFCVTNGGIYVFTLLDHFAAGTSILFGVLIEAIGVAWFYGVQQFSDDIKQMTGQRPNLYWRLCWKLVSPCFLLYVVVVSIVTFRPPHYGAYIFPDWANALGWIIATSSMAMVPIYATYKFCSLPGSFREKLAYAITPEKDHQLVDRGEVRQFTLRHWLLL
recorded_endpoint: IC50 (nM)

[P] CC1(C)CN(c2ccc3sccc3c2)C2COCC2N1 (stereo not shown) [Example 8]
[Q] CC1(C)CN(c2ccc(F)c3[nH]ccc23)[C@H]2CCCC[C@@H]2N1 [Example 895]
Qu. Please indicate which item has the smaller measured IC50: P versus Q To answer, give the label that identifies your chosen option.
Ans. Q
(Q: 19.9 nM, P: 378 nM)

[A] CN1[C@@H]2CCCC[C@@H]2N(c2cccc3sccc23)CC1(C)C [Example 125]
[B] C[C@@H]1CN(c2ccc3sccc3c2)[C@H]2CCCC[C@@H]2N1 (relative stereo) [Example 285]
[C] CC1(C)CN(c2cccc3occc23)[C@@H]2CCCC[C@@H]2N1 (relative stereo) [Example 33]
[D] CC1(C)CN(c2ccc3cc(OC(F)F)ccc3c2)[C@H]2CCCC[C@@H]2N1 [Example 867]
[E] CC1(C)CN(c2ccc(F)c3c2CCC3)[C@H]2CCCC[C@H]2N1 [Example 791]
Qu. Rank ascending by IC50. Show the ranking through the labels, in the order asked for.
Ans. A, C, B, D, E

[a] Clc1ccc(N2CCN[C@H]3CCCC[C@@H]32)c2ccoc12 [Example 1083]
[b] CC1(C)CN(c2ccc3[nH]c(C#N)cc3c2)[C@H]2CCCC[C@H]2N1 [Example 781]
[c] COc1cc2ccc(N3CC(C)(C)N[C@H]4CCCC[C@H]43)cc2cc1C#N [Example 610]
Qu. List these items ordered by IC50, big to small. Show the ranking through the labels, in the order asked for.
Ans. a, c, b

* * *

biological target: Norepinephrine (NE) uptake (Rattus norvegicus); test: Norepinephrine (NE) uptake inhibitory activity using rat brain synaptosome (hippocampus); format: biochemical; conditions: tritium-labeled NE 12 nM, 37° C. ten minutes, read-out: 50% inhibitory concentration
recorded_endpoint: IC50 (nM)

[1] COc1cc2ccc(N3CC(C)(C)N[C@@H]4CCCC[C@H]43)cc2cc1C#N
[2] CC1(C)CN(c2cccc3ccsc23)[C@@H]2CCCC[C@@H]2N1
Qu. Please indicate which item has the smaller measured IC50: 1 versus 2 To answer, give the label that identifies your chosen option.
Ans. 2
(2: 1 nM, 1: 31.9 nM)
